Test system: M14 melanoma
test-name: NCI-60 one-dose screen, 48 h
test-settings: 10 µM unless noted
Compounds without any hit were thinned out: in the full panel of roughly 83,000, 20% have a hit. The source made the active and inactive calls. Rule for the calls: active = growth percent below 10; inactive = the rest.
In this exercise, the only acceptable responses are yes for active, no for inactive

[Q] Hey, what did the test say about O=[N+]([O-])c1ccc(CI)cc1 ?
[A] no

====

Test system: A498 renal
test-name: NCI-60 one-dose screen, 48 h (100 = growth as untreated, 0 = no growth, -100 = all killed)
test-settings: 10 µM unless noted
Compounds without any hit were thinned out: in the full panel of roughly 83,000, 20% have a hit.
quantity-kind: growth (%)
Answers are plain numbers, in %.

CC1=C(C)C(=O)O[C@@H]([C@](C)(O)[C@]2(O)CC[C@@]3(O)[C@@H]4C[C@H]5O[C@]56CC=CC(=O)[C@]6(C)[C@H]4CC[C@]23C)C1; -59.9
O=C=Nc1ccc(Br)cc1; 94.2
COc1cc(/C=C\[N+](=O)[O-])ccc1OCc1ccccc1; 71.1
C[C@]12CCC(=O)C[C@@H]1CC[C@@H]1[C@@H]2CC[C@]2(C)[C@@H](OC(=O)N(CCCl)N=O)CC[C@@H]12; 43.5

Read the next record carefully.
[Q] What measured growth goes with CNC(=O)CCl ?
[A] 92.1
